The measured values listed here are drawn from PubChem BioAssay AID2060912.

# Tested on: HUVEC/MSC spheroids viability
# assay summary: Human HUVEC/MSC cell line growth inhibition [KRAS2];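 further: percent of DMSO vehicle control luminescence so 100% = untreated viability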
# protocol conditions: second compound 0.1 µM; first compound 0.316 µM; stronger effect = lower value

{"columns": ["compound", "test system", "result unit", "viability, T/C"],
 "data": [
  ["COc1cc2nccc(Oc3ccc(NC(=O)C4(C(=O)Nc5ccc(F)cc5)CC4)cc3)c2cc1OC + C=CC(=O)N1CCN(c2nc(=O)n(-c3c(C)ccnc3C(C)C)c3nc(-c4c(O)cccc4F)c(F)cc23)C(C)C1", "HUVEC/MSC spheroids viability", "%", 89.2],
  ["CCNC(=O)CC1N=C(c2ccc(Cl)cc2)c2cc(OC)ccc2-n2c(C)nnc21 (stereo not given) + COc1cc2nc(C)nc(NC(C)c3cc(N)cc(C(F)(F)F)c3)c2cc1OC1CCOC1", "HUVEC/MSC spheroids viability", "%", 89.3],
  ["CC(C)NCC(C(=O)N1CCN(c2ncnc3c2C(C)CC3O)CC1)c1ccc(Cl)cc1 (stereo not given) + CC1OCC2(CCN(c3cnc(Sc4ccnc(N)c4Cl)c(N)n3)CC2)C1N", "HUVEC/MSC spheroids viability", "%", 90.9],
  ["CC1OCC2(CCN(c3cnc(Sc4ccnc(N)c4Cl)c(N)n3)CC2)C1N (stereo not given) + CNCc1ccccc1-c1csc(C(C)Nc2nc(C)nc3cc(OC)c(OC)cc23)c1", "HUVEC/MSC spheroids viability", "%", 90.4],
  ["O=C(c1cc(Cc2n[nH]c(=O)c3ccccc23)ccc1F)N1CCN(C(=O)C2CC2)CC1 + CNCc1ccccc1-c1csc(C(C)Nc2nc(C)nc3cc(OC)c(OC)cc23)c1", "HUVEC/MSC spheroids viability", "%", 92.1]
]}

====

# System: HUVEC/MSC spheroids viability
# assay summary: Human HUVEC/MSC cell line growth inhibition [KRAS2];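 further: percent of DMSO vehicle control luminescence so 100% = untreated viability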
# protocol conditions: second compound 10 µM; first compound 3.16 µM; stronger effect = lower value
observation type: viability, T/C (%)

{"columns": ["molecule", "result unit", "reported"],
 "data": [
  ["CC1OCC2(CCN(c3cnc(Sc4ccnc(N)c4Cl)c(N)n3)CC2)C1N (stereo unspecified) + COc1cc2nc(C)nc(NC(C)c3cc(N)cc(C(F)(F)F)c3)c2cc1OC1CCOC1", "%", 56.7],
  ["COC(=O)c1ccc2c(C(=Nc3ccc(N(C)C(=O)CN4CCN(C)CC4)cc3)c3ccccc3)c(O)[nH]c2c1 + CC1OCC2(CCN(c3cnc(Sc4ccnc(N)c4Cl)c(N)n3)CC2)C1N", "%", 0.37],
  ["CC(C)NCC(C(=O)N1CCN(c2ncnc3c2C(C)CC3O)CC1)c1ccc(Cl)cc1 (stereo unspecified) + CC1OCC2(CCN(c3cnc(Sc4ccnc(N)c4Cl)c(N)n3)CC2)C1N", "%", 14.3],
  ["Cn1nccc1Nc1nccc(-c2cc3c(s2)C(C)(C)N(CCN2CCOCC2)C3=O)n1 + C=CC(=O)N1CCN(c2nc(=O)n(-c3c(C)ccnc3C(C)C)c3nc(-c4c(O)cccc4F)c(F)cc23)C(C)C1", "%", 37],
  ["CC1(C)CCC(CN2CCN(c3ccc(C(=O)NS(=O)(=O)c4ccc(NCC5CCOCC5)c([N+](=O)[O-])c4)c(Oc4cnc5[nH]ccc5c4)c3)CC2)=C(c2ccc(Cl)cc2)C1 + COc1cc2nc(C)nc(NC(C)c3cc(N)cc(C(F)(F)F)c3)c2cc1OC1CCOC1", "%", 80.6],
  ["COc1cc(Nc2ncc3c(n2)-c2ccc(Cl)cc2C(c2c(F)cccc2OC)=NC3)ccc1C(=O)O + C=CC(=O)N1CCN(c2nc(=O)n(-c3c(C)ccnc3C(C)C)c3nc(-c4c(O)cccc4F)c(F)cc23)C(C)C1", "%", 101]
]}
